- Test protocol: In vitro cytotoxicity, Cell Counting Kit (CCK-8)
- Format: cell-based, canine
- Run parameters: dog; MDCK cells, 48 h incubation, CCK-8, OD450nm; read-out: IC50 (cytotoxic effects on MDCK cells)
Reported endpoint: IC50 at 48 h (µM)
Number only, in µM; omit the unit.

Enquiry: IC50 at 48 h for O=C1c2c(O)c(=O)ccn2N([C@@H]2c3ccccc3SCc3c2ccc(F)c3F)[C@@H]2COCCN12 ?
Return: 10.5

Enquiry: Recorded IC50 at 48 h of [2H]C([2H])([2H])C([2H])([2H])OC(=O)OCOc1c2n(ccc1=O)N([C@@H]1c3ccccc3SCc3c1ccc(F)c3F)[C@@H]1COCCN1C2=O , please.
Return: 17.4

Enquiry: Which IC50 at 48 h reading was recorded for the compound COC(=O)OCOc1c2n(ccc1=O)N([C@@H]1c3ccccc3SCc3c1ccc(F)c3F)[C@@H]1COCCN1C2=O ?
Return: 11.6

Attribution: patent EP4696693A1
